Assay: in vitro
Conditions: human
assay readout: pIC50
pIC50 is a log-scale quantity: -log10 of the concentration expressed in molar.

INSERT INTO results (chemical_smiles, recorded_result) VALUES
  ('CC(=O)[C@](C)(O)[C@@H](O)C[C@@H]1C[C@@]23OC(=O)C(=C2O)C(=O)[C@@]2(C)[C@H]4[C@H](C=C[C@H]2[C@H](C)/C=C/C[C@]3(C)C=C1CO)[C@@H](O[C@@H]1O[C@H](C)[C@@H](O)[C@H](O[C@H]2O[C@H](C)[C@@H](OC(=O)c3c(O)ccc(Cl)c3C)[C@H](O)[C@H]2O)[C@H]1O)[C@H](C)C[C@@H]4C', 4.75);

Now look at this entry.
Asked: Input "C[C@H]1CC[C@@H]2[C@H](C=C[C@H]3[C@H](C)/C=C/C[C@]4(C)C=C(CO)[C@H](C[C@@H](C)O)C[C@]45OC(=O)C(=C5O)C(=O)[C@@]23C)C1" , output reported pIC50.
Given back: 4.40

###

Assay: MTT cytotoxicity assay, Hep G2
Settings: human
pIC50: −log10 of the molar value.
Parameter: pIC50. Scope: all listed entries.

The examples below pair each entry with its known result.
INSERT INTO results (molecule, recorded_result) VALUES
  ('Cc1c(Cl)ccc(O)c1C(=O)O[C@H]1[C@H](O)[C@@H](O)[C@@H](O[C@@H]2[C@@H](O)[C@H](O[C@@H]3[C@H]4C=C[C@H]5[C@H](C)/C=C/C[C@]6(C)C=C(CO)[C@H](C[C@@H](C)O)C[C@]67OC(=O)C(=C7O)C(=O)[C@@]5(C)[C@@H]4[C@@H](C)C[C@H]3C)O[C@H](C)[C@H]2O)O[C@@H]1C [Compound 2, Phocoenamicin E]', 4.68),
  ('CC(=O)[C@](C)(O)[C@@H](O)C[C@@H]1C[C@@]23OC(=O)C(=C2O)OC(=O)[C@@]2(C)[C@H]4[C@H](C=C[C@H]2[C@H](C)/C=C/C[C@]3(C)C=C1C)[C@@H](O[C@@H]1O[C@H](C)[C@@H](O)[C@H](O[C@H]2O[C@H](C)[C@@H](OC(=O)c3c(O)ccc(Cl)c3C)[C@H](O)[C@H]2O)[C@H]1O)[C@H](C)C[C@@H]4C [Compound 5, phocoenamicin C]', '< 4.23');

Now, please, on to the next molecule.
Asked: Complete the entry with pIC50 for CC(=O)[C@](C)(O)[C@@H](O)C[C@@H]1C[C@@]23OC(=O)C(=C2O)C(=O)[C@@]2(C)[C@H]4[C@H](C=C[C@H]2[C@H](C)/C=C/C[C@]3(C)C=C1C)[C@@H](O[C@@H]1O[C@H](C)[C@@H](O)[C@H](O[C@H]2O[C@H](C)[C@@H](OC(=O)c3c(O)ccc(Cl)c3C)[C@H](O)[C@H]2O)[C@H]1O)[C@H](C)C[C@@H]4C [Compound 3, phocoenamicin]
Given back: < 4.23
